Values from patent US20150273076A1

# protocol: Heat stability (no precipitation after heat treatment)
# test.context: 10 min at 100° C. or 30 min at 85° C.
readout.label: Heat stability

HH2: SP1 N-terminus modification HH2, SEQ ID NO:4 (protein, Sp1 mutant variant 2X His inserted into position 2) MHHATRTPKLVKHTLLTRFKDEITREQIDNYINDYTNLLDLIPSMKSFNWGTDLGMESAELNRGYTHAFESTFESKSGLQEYLDSAALAAFAEGFLPTLSQRLVIDYFLY ... +
RGDC2: SP1 fusion protein with N-terminal peptide RGDC, SEQ ID NO:6 (protein, Sp1 mutant variant Arg, Gly, Asp and Cys inserted into position 2) MRGDCATRTPKLVKHTLLTRFKDEITREQIDNYINDYTNLLDLIPSMKSFNWGTDLGMESAELNRGYTHAFESTFESKSGLQEYLDSAALAAFAEGFLPTLSQRLVIDYFLY ... +
N31A: SP1 mutant N31A, SEQ ID NO:15 (protein, Sp1 mutant variant N31A mutated) MATRTPKLVKHTLLTRFKDEITREQIDNYIADYTNLLDLIPSMKSFNWGTDLGMESAELNRGYTHAFESTFESKSGLQEYLDSAALAAFAEGFLPTLSQRLVIDYFLY ... +
